# protein stability index annotations
Test system: Saccharomyces cerevisiae
Assay: protein stability index of tFT-peptide fusion (C-terminal peptide) (PSI (0-1 scale)); higher = more stable (slower turnover)
Conditions: genetic background: das1 deletion; temperature: 30 C
I'd appreciate a reply containing only the number, no unit.

Example entries and their recorded answers appear below.
LVSQRITGPGVF [ASI2 C-terminal 12 aa]    0.687
SSTVESTNINME [MRT4 C-terminal 12 aa]    0.69
EHKGSIEAGFTS [CSS2 C-terminal 12 aa]    0.698

Param readout = protein stability index; param system = Saccharomyces cerevisiae; param query = IAEENSSTESLF [CIS1 C-terminal 12 aa] ; response: value
0.709

What do we get for LKILRQKMNHQN [ATG1 C-terminal 12 aa] ?
0.686

What do we get for DVHDDVESDDEI [ALF1 C-terminal 12 aa] ?
0.696

====

Test system: Saccharomyces cerevisiae
Test: protein stability index of tFT-peptide fusion (C-terminal peptide) (PSI (0-1 scale)); higher = more stable (slower turnover)
Conditions: genetic background: wild type; temperature: 30 C
# protein stability index annotations
I'd appreciate a reply containing only the number, no unit.

KKYYCRKLNTKK    0.715
YAYLGSNLKQTA    0.703
LAGVSTPLPPPP    0.696
YLCVLASLSSTF    0.591
LVPWSGCSALLV    0.585

Returns the measured protein stability index for the input sequence. Input: LAPPLILLPFVD
0.699

What do we get for PPPPPRHPSSPP ?
0.711

What do we get for LASTMTIMLPGC ?
0.703

What do we get for RDLRGGIADSAG ?
0.684

What do we get for QVVLCCAIDKNT ?
0.708

What do we get for PSRSLSPSPPFS ?
0.691

What do we get for DSLTNAELVFAC ?
0.607

What do we get for LPRPPPRYLPPL ?
0.711

What do we get for FLSFLFTGFIQL ?
0.595

====

# protein stability index annotations
Test system: Saccharomyces cerevisiae
Assay: protein stability index of tFT-peptide fusion (C-terminal peptide) (PSI (0-1 scale)); higher = more stable (slower turnover)
Conditions: genetic background: wild type; temperature: 30 C
I'd appreciate a reply containing only the number, no unit.

Example entries and their recorded answers appear below.
GAGFCSGLRGAG    0.689
FSMHFARFFSCS    0.687
LPLQPSSNLTCL    0.709
LPPPPFPPPKPF    0.683
PFPPHSPPSAPS    0.697
EKKKQKDKKKKN    0.705
VEHILQGVKYRR    0.717
PDPHTLTPTGHP    0.71

Returns the measured protein stability index for the input sequence. Input: NINNKRNHIHLK
0.648

What do we get for SLKELSYKGTLR ?
0.65

====

Test system: Saccharomyces cerevisiae
Assay: protein stability index of tFT-peptide fusion (C-terminal peptide) (PSI (0-1 scale)); higher = more stable (slower turnover)
Conditions: genetic background: das1 deletion; temperature: 37 C
Mark 1 (yes) for reported protein stability index of 0.7 or greater; mark 0 (no) for anything smaller.

Answered cases to consult:
CFVISVLFFFVG    0 (no)
LLRFFPLLLFSF    0 (no)
RSNLSKSWHRIG    1 (yes)
PTPSRPPHPPLR    1 (yes)
FFVKGFRLLVFQ    0 (no)

# bool: protein stability index of PLTSPLLFPVFA >= 0.7
0 (no)

What do we get for DLVGRETRMRLN ?
1 (yes)

====

Tested on: Saccharomyces cerevisiae
Test: protein stability index of tFT-peptide fusion (C-terminal peptide) (PSI (0-1 scale)); higher = more stable (slower turnover)
Conditions: genetic background: das1 deletion; temperature: 37 C
experimental endpoint: protein stability index
I'd appreciate a reply containing only the number, no unit.

Example entries and their recorded answers appear below.
EKKNQTAYNKTV    0.707
SFAVSSDYLFII    0.808

Returns the measured protein stability index for the input sequence. Input: LAGLVRFWGCVG
0.748

What do we get for VVFVFIDLGLCV ?
0.423

What do we get for HLRWYITGIVWF ?
0.671

What do we get for WLCLGLVVGLFL ?
0.459

What do we get for SYALGNVVGGSL ?
0.748

What do we get for LCVGFISFCFCL ?
0.53

What do we get for APLSPLLPPFLC ?
0.748

What do we get for FCSLLVLLFFGV ?
0.473

What do we get for PSSVKLRVPSLY ?
0.731

====

System: Saccharomyces cerevisiae
Assay: protein stability index of tFT-peptide fusion (C-terminal peptide) (PSI (0-1 scale)); higher = more stable (slower turnover)
Settings: genetic background: wild type; temperature: 30 C
experimental endpoint: protein stability index
I'd appreciate a reply containing only the number, no unit.

Example entries and their recorded answers appear below.
GVAILFTFFRLL    0.159
LVIFSLLFSFSH    0.32
QEPDARYGPGRT    0.692

Returns the measured protein stability index for the input sequence. Input: KRKTKIEQDQRQ
0.67

What do we get for AALVFPSCVVGG ?
0.609

What do we get for RSVPLLFPSLFL ?
0.72

What do we get for GGSRRANRQMRK ?
0.715

What do we get for SVVSFIRRRSFL ?
0.866

====

Tested on: Saccharomyces cerevisiae
Assay: protein stability index of tFT-peptide fusion (C-terminal peptide) (PSI (0-1 scale)); higher = more stable (slower turnover)
Settings: genetic background: wild type; temperature: 30 C
# protein stability index annotations
I'd appreciate a reply containing only the number, no unit.

Example entries and their recorded answers appear below.
CCLASVSADKVV    0.703
GSACSLCGLYFN    0.709
RPPGQVSEALEW    0.69
PFCTRRSVRYRS    0.719
FCIYLCLSTSIT    0.374
ERKESKSRKVER    0.726

Param readout = protein stability index; param system = Saccharomyces cerevisiae; param query = LRVVVGLCMCVL ; response: value
0.453

What do we get for PVDAAPCSPSGL ?
0.663

====

Test system: Saccharomyces cerevisiae
Assay: protein stability index of tFT-peptide fusion (C-terminal peptide) (PSI (0-1 scale)); higher = more stable (slower turnover)
Conditions: genetic background: wild type; temperature: 30 C
experimental endpoint: protein stability index

WVSGLVSIGACL    0.683
GPPLSPPLLLLL    0.681
QLSLSTPAGRLI    0.689

Now examine the next entry.
Returns the measured protein stability index for the input sequence. Input: AVLGDGCGVVGA
0.691

====

Test system: Saccharomyces cerevisiae
Assay: protein stability index of tFT-peptide fusion (C-terminal peptide) (PSI (0-1 scale)); higher = more stable (slower turnover)
Settings: genetic background: wild type; temperature: 30 C
experimental endpoint: protein stability index

Example entries and their recorded answers appear below.
HFASPPAPRSNL    0.765
QWSNSRPVGLTG    0.676
VPSLRSTLPPPL    0.731

Param readout = protein stability index; param system = Saccharomyces cerevisiae; param query = PPSLLPFDPSLP ; response: value
0.708

What do we get for CLVKSNVCVAPG ?
0.643

What do we get for PSSPPPPPPPPH ?
0.71

What do we get for EVWGGVCWRAGG ?
0.735

What do we get for STTIRTPSGMFR ?
0.661

What do we get for SVSNSRCGRLML ?
0.71

What do we get for SYSSRSCALRVI ?
0.533

What do we get for RPAASTKWAVQP ?
0.692

What do we get for WISLRRIKSNRE ?
0.802

What do we get for PRPLPPPPPLST ?
0.654

What do we get for GGGSGGVVGGIS ?
0.674

What do we get for GGGGGGGGGAGG ?
0.674

What do we get for KSAGLKPNWSTT ?
0.696

What do we get for SNIKEYKSINGR ?
0.666

What do we get for AFFLHKTFRSSF ?
0.732

====

Test system: Saccharomyces cerevisiae
Experiment: protein stability index of tFT-peptide fusion (C-terminal peptide) (PSI (0-1 scale)); higher = more stable (slower turnover)
Settings: genetic background: wild type; temperature: 30 C
# protein stability index annotations
I'd appreciate a reply containing only the number, no unit.

Example entries and their recorded answers appear below.
LPGFPGPSCICH    0.703
HSGGRVYSYACI    0.685
PPPPRTLASPSY    0.679
SALTSLAFGSFE    0.704

Now examine the next entry.
Returns the measured protein stability index for the input sequence. Input: ASLLGSSPPPFI
0.696

====

Test system: Saccharomyces cerevisiae
Assay: protein stability index of tFT-peptide fusion (C-terminal peptide) (PSI (0-1 scale)); higher = more stable (slower turnover)
Settings: genetic background: wild type; temperature: 30 C
Binning of protein stability index into classes: category 1 = under 0.2, category 2 = from 0.2 up to 0.4, category 3 = 0.4 and over

Answered cases to consult:
VVLWTFLLEVSA    category 1
LASSCYRHLLVV    category 1

Category lookup for the sequence HRARILLIRICP
category 3

These measurements were taken from the supplement of paper PMC10724198.
